# Tested on: female ICR mouse
# method: Phototoxicity test, ear abnormality after UV irradiation
# Type: in vivo
# experimental.setup: 40 mg/kg i.v., UV 320-400 nm 4 hours; 24 hours; affected/total mice
readout.type: Frequency (ear abnormality), 24 hours

Record excerpt, results attached:
compound: Nc1cc(-n2cc(C(=O)O)c(=O)c3cc(F)c(N4CC(N)C4)c(Cl)c32)c(F)cc1F
target.desc: female ICR mouse
Frequency (ear abnormality), 24 hours: 0/3

compound: Nc1cc(-n2cc(C(=O)O)c(=O)c3cc(F)c(N4CC(N)C4)c(F)c32)c(F)cc1F
target.desc: female ICR mouse
Frequency (ear abnormality), 24 hours: 0/3

compound: NC1CCN(c2nc3c(cc2F)c(=O)c(C(=O)O)cn3-c2ccc(F)cc2F)C1 (stereo not drawn) [tosufloxacin, reference compound]
target.desc: female ICR mouse
Frequency (ear abnormality), 24 hours: 4/5

compound: Nc1cc(-n2cc(C(=O)O)c(=O)c3cc(F)c(N4CC[C@H](N)C4)nc32)c(F)cc1F
target.desc: female ICR mouse
Frequency (ear abnormality), 24 hours: 0/3

compound: Nc1cc(-n2cc(C(=O)O)c(=O)c3c(O)c(F)c(N4CC[C@H](N)C4)cc32)c(F)cc1F
target.desc: female ICR mouse
Frequency (ear abnormality), 24 hours: 0/3

API: the following record is the query input.
Entry `Nc1cc(-n2cc(C(=O)O)c(=O)c3cc(F)c(N4CC(N)C4)nc32)c(F)cc1F` ; Frequency (ear abnormality), 24 hours = 0/3

Provenance of the data: patent US5910498A
